- ASSAY SYSTEM: Fc region prepared by digesting human monoclonal antibody IgG with papain (Homo sapiens, UniProt P01857)
- Construct: The Fc region to be immobilized to a sensor chip was prepared, by digesting human monoclonal antibody IgG with papain; made in house; host or cells: papain digest of human monoclonal IgG (Pierce Fab Preparation Kit), then MabSelect SuRe, HiTrap DEAE and Superdex 200
- ASSAY COMMENT: Surface plasmon resonance, polypeptides on immobilized Fc region prepared from human monoclonal IgG (Example 2, 3) and 4); Example 8)
- Assay type: binding
- CONDITION CONTEXT: polypeptide obtained by protease cleavage of p17_trx; read-out: equilibrium dissociation constant KD
Ends that are not written are not given here.

>  <SEQ TEXT>
GPGISAFSPGRGVYDPETGTWYDAAWHLGELVWATYYDPETGTWEPDWQRMLGQ [SEQ ID NO: 57]

>  <Kd, nM>
1.6

$$$$
